measured-quantity: melting point

// solved cases for melting point follow
// query melting point value for entry O=C(O)[C@@H](Cc1cccs1)NS(=O)(=O)c1ccc(-c2ccc(Cl)cc2)cc1 [Example 27] > 200 °C (dec.)

For the compound O=C(O)[C@H](Cc1c[nH]cn1)NS(=O)(=O)c1ccc(Oc2ccccc2)cc1 [Example 30] , what melting point is on record? 183 to 185 °C

Look up melting point for this compound: CN(C)c1ccc(-c2ccc(S(=O)(=O)N[C@H](CCC(=O)O)C(=O)O)cc2)cc1 [Example 46] 165 °C

Kindly consider the entry below.
Any idea what melting point was measured for O=C(CC[C@H](NS(=O)(=O)c1ccc(-c2ccccc2)cc1)C(=O)O)N[C@@H](Cc1ccccc1)C(=O)O [Example 92] ? 123.5 to 124.5 °C
